# Test system: NCI-H23 lung
# Experiment Notes: NCI-60 one-dose screen, 48 h (100 = growth as untreated, 0 = no growth, -100 = all killed)
# Run Parameters: 10 µM unless noted
This is part of a sample that, as a whole, favours compounds with a hit. Of some 83,000 tested, about 20% had one in any assay.
Mark each entry criterion met if its growth sits below 90%, and criterion not met for all others.

Check if growth falls below 90% for CC(O)CCNC(c1ccccc1)C(O)c1ccccc1 (configuration not stated) .
criterion not met

Identify whether the molecule Cc1ccc(NC(=S)N/C=C(\c2ccccc2)S(=O)Cc2ccccc2)c(C)c1 (configuration not stated) records growth below 90%.
criterion not met

Lab log: compare recorded growth with 90%; is it strictly lower for CC(C)(C)OC(=O)c1ccc(NCc2cc(O)ccc2O)cc1 ?
criterion met

Dear colleague, could you confirm whether growth of COc1ccc(S(=O)(=O)c2ccc(F)cc2)cc1 falls below 90%? Thanks.
criterion not met

For this molecule, is growth lower than 90%? O=[N+]([O-])c1ccc(NC(c2ccccc2)c2ccc3cccnc3c2O)cc1 (configuration not stated)
criterion met

Hi there! Is growth for CCOc1ccc(/C=C\C(=O)O)cc1 below 90%, do you know?
criterion not met

Just wondering, is growth of O=C(N=C1C(=O)C2(CCCCC2)C2(N=C(c3ccccc3)OC2=O)C12CCCCC2)c1ccccc1 (configuration not stated) below 90%?
criterion met

Please let me know if COCCCNC1=C(C#N)C(=O)NC(c2cccs2)S1 (configuration not stated) shows growth below 90%.
criterion not met

Lab log: compare recorded growth with 90%; is it strictly lower for CCOC(=O)c1ccncc1 ?
criterion not met

----------
# System: SF-295 CNS
# Experiment Notes: NCI-60 one-dose screen, 48 h (100 = growth as untreated, 0 = no growth, -100 = all killed)
# Run Parameters: 10 µM unless noted
This is part of a sample that, as a whole, favours compounds with a hit. Of some 83,000 tested, about 20% had one in any assay.
Assay Metric: growth (%)
The answer is to be given in %; state only the numeric part.

Measured growth, Cc1cccc(Cl)c1N : 102

Recorded result, O=c1[nH]nnc2cc(Cl)ccc12 , growth: 103

Noted for CC1CCC(=O)N1c1ccc(N)cc1 (centres undefined) : its growth reads 102

// field: growth; key: CCOP(C)(=O)/C(Cc1ccc(OC)c(OC)c1)=N\O (centres undefined) ; value = 100

Record summary for CCCCCCCCCCCCCCCCC(=O)O : reported growth = 104

Measured growth of CC(=O)Oc1cc(C)c(OC(C)=O)c(C)c1C : 107

Entry COC(=O)CCOc1ccccc1 , growth reported as 130

Looking up Nc1nc(N)c2cc(S(=O)(=O)c3ccccc3)ccc2n1 , I see its growth listed as 18.9

Documented growth of CCN(C)c1ccccc1 : 91

----------
# Test system: UACC-62 melanoma
# Experiment Notes: NCI-60 one-dose screen, 48 h (100 = growth as untreated, 0 = no growth, -100 = all killed)
# Run Parameters: 10 µM unless noted
The panel holds about 83,000 compounds, 20% with a hit somewhere; the sample as a whole holds those more often. Activity calls are given as the source filed them. The calls were made as follows: active = growth percent below 10; inactive = the rest.
Answer each item with its documented growth.

Sure, the documented growth for CCOC(C)=N is 102% (inactive)

Lookup result for COc1ccccc1OCC(O)CO (centres undefined) ; measured growth: 100% (inactive)

growth recorded for this molecule, Cc1ccc(NC(=S)N/C=C(\c2ccccc2)S(=O)Cc2ccccc2)c(C)c1 (centres undefined) , is 92.2% (inactive)

Summary for this molecule, Cc1c(Cl)cc(Cl)c(N)c1Cl : growth is 105% (inactive)

Summary for this molecule, CC(=O)C[n+]1ccccc1Sc1ccc(Cl)cc1 : growth is 84.6% (inactive)

// recorded growth for Nc1ccccc1SC1CC(=O)N(c2ccc(I)cc2)C1=O (centres undefined) : 82.7% (inactive)

Lab book: growth of CCOC(=O)CN1CCC(C(=O)OCC)CC1 noted as 94.6% (inactive)

Lab note: measured growth of CCCC(=O)Oc1ccc(CC)cc1 was 105% (inactive)

Sure, the documented growth for OCc1ccccc1F is 84% (inactive)

Value of measured growth for the entry COc1cc(C2c3cc4c(cc3C(OC(=O)C[n+]3ccccc3)C3COC(=O)C23)OCO4)cc(OC)c1OC (centres undefined) : 15.9% (inactive)

The recorded growth for entry O=C1C=CC(n2cc(F)c(=O)[nH]c2=O)O1 (centres undefined) equals 44.5% (inactive)

growth measured on CS(=O)(=O)c1nsc(N)n1 = 102% (inactive)

Measured growth of CC(NC(=O)CCl)c1ccccc1 (centres undefined) : 102% (inactive)

The recorded growth for entry O=C1Cc2ccccc2C(=O)N1 equals 92.2% (inactive)

For reference, reported growth for CC(=O)/C(N=Nc1ccc(S(=O)(=O)c2ccc(N=N/C(C(C)=O)=C(/C)O)cc2)cc1)=C(\C)O stands at 114% (inactive)

Input COc1ccc(/C=N/Nc2nc3ccccc3s2)cc1 . Output growth: 83% (inactive)

Input Cc1c(O)nc(N)[nH]c1=O . Output growth: 100% (inactive)

growth reported for this molecule O=C(O)c1ccc2c3ccc(C(=O)O)c4c(C(=O)O)ccc(c5ccc(C(=O)O)c1c25)c43 : 90.9% (inactive)

Reported growth of O=P(O)(O)OC1C(OP(=O)(O)O)C(OP(=O)(O)O)C(OP(=O)(O)O)C(OP(=O)(O)O)C1OP(=O)(O)O.[Cu+2] (centres undefined) : 79.7% (inactive)

Entry CCOP(C)(=O)/C(Cc1ccc(OC)c(OC)c1)=N\O (centres undefined) ; growth = 96% (inactive)

The molecule O=S(=O)(O)c1ccc2cc(O)ccc2c1 showed growth equal to 99.7% (inactive)

The value of growth measured for the molecule CC1CCC(=O)N1c1ccc(N)cc1 (centres undefined) turned out to be 100% (inactive)

The value of growth measured for the molecule COC(=O)c1nc(N)nc(C(=O)OC)c1C(=O)c1ccc(F)cc1 turned out to be 105% (inactive)

Entry CC(=O)Nc1ccc2oc(=O)ccc2c1 — recorded growth = 93.9% (inactive)

Lab book: growth of CCOC(=O)c1ccc(C(=N)N)cc1 noted as 108% (inactive)

O=C(c1ccccc1)C1(Br)CCCCC1 yielded growth of 90.5% (inactive)

Given item CC1(C)CC(=O)NC1=O , the value recorded as its growth is 99.6% (inactive)

Looking up CCCCC/C(C)=N\NC(N)=S , I see its growth listed as 96.2% (inactive)

get_value(item= CSc1nc(N)c(N)c(N)n1 , readout=growth) returns 101% (inactive)

Per the record, N#Cc1c(N)nc2c(c(-c3ccc(Cl)cc3)nn2-c2ccccc2)c1C#N has growth of 97.9% [100 µM] (inactive)

Notebook: O=COCCCc1ccccc1 , growth read as 88.7% (inactive)

Value of measured growth for the entry O=C1C2=C(Nc3cc(Cl)ccc3N2)OC1c1c[nH]c2ccc(COc3ccccc3)cc12 (centres undefined) : 68.7% (inactive)

Looking up COC(=O)C(Cc1cn(C(C)=O)c2ccccc12)P(=O)(OC)OC (centres undefined) , I see its growth listed as 93.1% (inactive)

# growth (molecule: Nc1nc(-c2ccccn2)cc(-c2cc(-c3ccccn3)nc(N)n2)n1 ) is 102% (inactive)

The measured growth associated with CCc1ccccc1-n1[nH]c(C)c(C=N)c1=O reads 101% (inactive)

For reference, reported growth for CCOC(=O)NC(N)=O stands at 103% (inactive)

Measured growth, OCCCc1ccccc1 : 96.2% (inactive)

The recorded growth for COC(=O)c1cc(C(=O)OC)cc([N+](=O)[O-])c1 is 102% (inactive)

The molecule CCNCc1ccccc1 showed growth equal to 100% (inactive)

Memo: COc1ccc(CCl)c(C)c1OC , reported growth: 99.5% (inactive)

// growth lookup, molecule = CN1C2C=CC(=O)C1C1C(=O)N(c3ccccc3)C(=O)C12 (centres undefined) , result: 84.3% (inactive)

Notebook: C/C=C/C(=O)OCCCCCCCCCCCC , growth read as 91.6% (inactive)

So for O=C1c2cccnc2-c2ncccc21 , the logged growth turned out to be 102% [100 µM] (inactive)

Form field growth, entry CCOCCC(=O)O : 102% (inactive)
